Cited source: patent US7101878B1

test: Pharmacokinetic studies / bioavailability in rats; type: in vivo, rat; conditions: rat female; 5 mg/ml solution in 10% DMSO 10% cremophor 80% saline
readout: Fp.o.

Some entries whose results are on file:
get_value(item= "COc1cccc(OC)c1NC(=O)c1ccc(Cc2c(C)cc(C)cc2C)o1" , readout=Fp.o.) returns 2% (10 mg/kg)^10

# compound "COc1cc(OC)c(NC(=O)c2ccc(Cc3cc4c(cc3C)OCCC4(C)C)o2)c(OC)c1" ; its Fp.o. = 41% (10 mg/kg)^10

New cases:
Documented Fp.o. of "COc1cc(C)c(Cl)c(C)c1Cc1ccc(C(=O)Nc2c(OC)cccc2OC)o1" : 34% (10 mg/kg)^10

Record "COc1cc(OC)c(NC(=O)c2ccc(Cc3c(C)ccc4c3OCCC4(C)C)o2)c(OC)c1" , field Fp.o.: 54% (10 mg/kg)^10

---

biological target: human GnRH receptor (Homo sapiens, UniProt P30968); construct: expressed in transfected cells; host or cells: HEK 293 (hGnRH-R/293, from Dr. Stuart Sealfon); experiment: Radioligand binding, 125I-GnRH-A displacement, membranes of HEK 293 cells with human GnRH receptor; conditions: 1 h, substrate remaining; 10 uM compound; closer to zero = closer to 100% inhibition; read-out: S%R 10 uM hGnRHR
readout: remaining activity at 10 µM (%)
Express it in %; write the number only.

Would you please look over these solved cases?
get_value(item= Cc1cc2c(cc1Cc1ccc(C(=O)Nc3c(C)cccc3C)o1)C(C)(C)CCC2(C)C [Compound 397] , readout=remaining activity at 10 µM) returns 43

Measured remaining activity at 10 µM of Cc1ccc(-n2nc(C)cc2NC(=O)c2ccc(Cc3cc4c(cc3C)C(C)(C)CCC4(C)C)o2)cc1 [Compound 326] : 51

remaining activity at 10 µM recorded for this molecule, Cc1cc2c(cc1Cc1ccc(C(=O)Nc3ccc4[nH]ncc4c3)o1)C(C)(C)CCC2(C)C [Compound 383] , is 7

Entry COC(=O)c1ccc(NC(=O)c2ccc(Cc3cc4c(cc3C)C(C)(C)CCC4(C)C)o2)c(O)c1 [Compound 393] — recorded remaining activity at 10 µM = 44

Consider Cc1cc2c(cc1Cc1ccc(C(=O)Nc3cccc(O)c3)o1)C(C)(C)CCC2(C)C [Compound 345] . Its measured remaining activity at 10 µM is 40

Reported remaining activity at 10 µM ( COc1ccc(NC(=O)c2ccc(Cc3cc4c(cc3C)C(C)(C)CCC4(C)C)o2)c(OC)c1 [Compound 332] ) = 1

Continuing:
Notebook: Cc1cc2c(cc1Cc1ccc(C(=O)Nc3cccc(C#N)c3)o1)C(C)(C)CCC2(C)C [Compound 351] , remaining activity at 10 µM read as 24

response.value for Cc1cc2c(cc1Cc1ccc(C(=O)Nc3nc(Cl)c4nc[nH]c4n3)o1)C(C)(C)CCC2(C)C [Compound 353] (field: remaining activity at 10 µM) = -4

---

Target: human GnRH receptor (Homo sapiens)
Construct: expressed in transfected cells; host or cells: HEK 293 (hGnRH-R/293, from Dr. Stuart Sealfon)
Sequence (P30968 1-328): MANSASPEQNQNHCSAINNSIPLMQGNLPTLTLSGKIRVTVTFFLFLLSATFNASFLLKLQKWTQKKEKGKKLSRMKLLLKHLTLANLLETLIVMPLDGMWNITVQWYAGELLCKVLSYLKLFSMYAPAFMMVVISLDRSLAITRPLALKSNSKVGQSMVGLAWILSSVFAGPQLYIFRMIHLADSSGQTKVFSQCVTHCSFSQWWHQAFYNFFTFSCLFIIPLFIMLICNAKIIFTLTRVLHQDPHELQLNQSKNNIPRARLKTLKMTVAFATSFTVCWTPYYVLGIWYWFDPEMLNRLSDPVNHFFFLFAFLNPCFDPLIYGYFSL
Test: Radioligand binding, 125I-GnRH-A displacement, membranes of HEK 293 cells with human GnRH receptor
Settings: 1 h, repeat of % Inhib. at 1 uM; read-out: Repeats @ 1 uM hGnRH
Method: All compounds were diluted in 1% DMSO (final assay concentration) in binding assay buffer. […] Reactions were terminated by rapid filtration onto 96-well Packard GF/C filters soaked in 0.1% polyethyleneimine. Filters were washed three times with PBS buffer, dried and counted on a Packard Topcount by liquid scintillation counting. […] The reaction mixture was vortexed and incubated for 1 min at room temperature. […] Fractions were assessed for biological activity by radioligand binding. […]
readout: inhibition at 1 µM

Consider Cc1cc2c(cc1Cc1ccc(C(=O)NCCc3ccccc3Oc3ccccc3)o1)C(C)(C)CCC2(C)C [drawing 1040] . Its measured inhibition at 1 µM is -8%

Others:
Consider "Cc1cc2c(cc1Cc1ccc(C(=O)NCCCN(CCO)CCO)o1)C(C)(C)CCC2(C)C" . Its measured inhibition at 1 µM is 36%

inhibition at 1 µM reported for this molecule COc1ccc(OC)c(C(O)C(C)NC(=O)c2ccc(Cc3cc4c(cc3C)C(C)(C)CCC4(C)C)o2)c1 (centres unmarked) : 14%

For reference, reported inhibition at 1 µM for Cc1cc2c(cc1Cc1ccc(C(=O)NCc3cccc(C)c3C)o1)C(C)(C)CCC2(C)C [drawing 1192] stands at 85%

// inhibition at 1 µM value for COC(=O)CCCCCNC(=O)c1ccc(Cc2cc3c(cc2C)C(C)(C)CCC3(C)C)o1 [drawing 1059] : 85%

For reference, reported inhibition at 1 µM for "Cc1cc2c(cc1Cc1ccc(C(=O)N(C)CCc3ccccn3)o1)C(C)(C)CCC2(C)C" stands at -7%

The reported inhibition at 1 µM of the molecule Cc1cc2c(cc1Cc1ccc(C(=O)NCc3cccc(Cl)c3)o1)C(C)(C)CCC2(C)C [drawing 1136] was 84%

Reported inhibition at 1 µM of Cc1cc2c(cc1Cc1ccc(C(=O)N3CCN(c4ccc(Cl)cc4)C(C)C3)o1)C(C)(C)CCC2(C)C (centres unmarked) : -7%
